- TARGET OF ASSAY: T1, CRBN, Q96SW2;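 also: pooled lentiviral library of zinc finger degron-EGFP fusions in mCherry-positive Jurkat cells, FACS-sorted after compound exposure, with degron abundance counted by next-generation sequencing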
- T1 chain: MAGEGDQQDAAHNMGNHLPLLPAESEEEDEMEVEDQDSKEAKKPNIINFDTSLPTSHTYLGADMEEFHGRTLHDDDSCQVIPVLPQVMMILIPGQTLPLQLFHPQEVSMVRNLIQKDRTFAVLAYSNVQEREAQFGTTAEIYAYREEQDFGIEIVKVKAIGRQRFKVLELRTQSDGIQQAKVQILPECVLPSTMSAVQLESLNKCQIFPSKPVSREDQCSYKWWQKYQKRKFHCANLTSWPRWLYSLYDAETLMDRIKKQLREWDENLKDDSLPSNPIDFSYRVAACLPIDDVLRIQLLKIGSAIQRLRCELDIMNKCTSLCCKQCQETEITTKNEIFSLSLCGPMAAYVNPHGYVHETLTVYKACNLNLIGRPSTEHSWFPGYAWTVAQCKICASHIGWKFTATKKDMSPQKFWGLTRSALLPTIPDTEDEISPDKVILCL
- METHOD: log2 fold change of degron read counts, EGFP-low vs EGFP+ sorted cells (limma voom), compound-induced degradation; higher = more compound-induced degradation of the degron-EGFP fusion; degrons are variants of IKZF1/3 zinc finger 2; compound dose not given here
- EXPERIMENTAL PARAMETERS: Jurkat; 18 h; compound: compound 33 (diphenyl IMiD analogue)
In all, about 8,300 sequences were measured (“log2 fold change of degron read counts, EGFP-low vs EGFP+ sorted cells (limma voom), compound-induced degradation”: median about -1.1, highest 2% from about 3.2 on). Shown is part of a subset that was picked to be rich in the highest values.
Answer Condition not met if log2 fold change of degron read counts is under -0.6, and Condition met if it is -0.6 or more.

> print(dat)
                                      chain              label
1  FHCEVCGAMFTQKGNLLRHIKL [46F_47H_49E_50V_52G_53A_54M_55F_67L_, Q9UKT9]      Condition met
2  FNCDICGAKFTQKGNLLRHIKL [46F_47N_49D_50I_52G_53A_54K_55F_67L_, Q9UKT9]  Condition not met
3  FVCEVCGAMFTQKGNLLRHIKL [46F_47V_49E_50V_52G_53A_54M_55F_67L_, Q9UKT9]      Condition met
4  FECDICGAKFTQKGNLLRHIKL [46F_47E_49D_50I_52G_53A_54K_55F_67L_, Q9UKT9]  Condition not met
5  FCCDICGAKFTQKGNLLRHIKL [46F_47C_49D_50I_52G_53A_54K_55F_67L_, Q9UKT9]  Condition not met
6  FMCDICGAKFTQKGNLLRHIKL [46F_47M_49D_50I_52G_53A_54K_55F_67L_, Q9UKT9]      Condition met
